# target of assay: Thymidine kinase, cytosolic (Homo sapiens)
# Sequence (P04183 whole entry): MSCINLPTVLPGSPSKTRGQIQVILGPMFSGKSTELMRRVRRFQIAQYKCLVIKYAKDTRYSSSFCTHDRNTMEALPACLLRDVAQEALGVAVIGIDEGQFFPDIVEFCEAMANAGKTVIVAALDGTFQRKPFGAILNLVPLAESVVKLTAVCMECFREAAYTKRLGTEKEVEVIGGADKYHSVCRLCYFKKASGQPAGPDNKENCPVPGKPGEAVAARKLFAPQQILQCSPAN
# assay text: Substrate activity at human thymidine kinase 1 assessed as Km incubated for 24 hrs
# Assay type: ADME
quantity measured: Km
Value and unit, in that order.

input: Find the measured Km of Cc1cn([C@H]2C=C[C@@H](CO)O2)c(=O)[nH]c1=O and report it.
output: 133 µM

----------
# assay text: Inactivation of CYP2B1 (unknown origin)
# Set-up: species or system Homo sapiens
quantity measured: pKi
Answers are plain numbers, as −log10 of the molar value.

input: Given C#CCN(C)[C@H](C)Cc1ccccc1 , respond with its pKi.
output: 6.00

----------
# target of assay: Acetylcholinesterase (Homo sapiens, UniProt P22303)
# Sequence (P22303 whole entry): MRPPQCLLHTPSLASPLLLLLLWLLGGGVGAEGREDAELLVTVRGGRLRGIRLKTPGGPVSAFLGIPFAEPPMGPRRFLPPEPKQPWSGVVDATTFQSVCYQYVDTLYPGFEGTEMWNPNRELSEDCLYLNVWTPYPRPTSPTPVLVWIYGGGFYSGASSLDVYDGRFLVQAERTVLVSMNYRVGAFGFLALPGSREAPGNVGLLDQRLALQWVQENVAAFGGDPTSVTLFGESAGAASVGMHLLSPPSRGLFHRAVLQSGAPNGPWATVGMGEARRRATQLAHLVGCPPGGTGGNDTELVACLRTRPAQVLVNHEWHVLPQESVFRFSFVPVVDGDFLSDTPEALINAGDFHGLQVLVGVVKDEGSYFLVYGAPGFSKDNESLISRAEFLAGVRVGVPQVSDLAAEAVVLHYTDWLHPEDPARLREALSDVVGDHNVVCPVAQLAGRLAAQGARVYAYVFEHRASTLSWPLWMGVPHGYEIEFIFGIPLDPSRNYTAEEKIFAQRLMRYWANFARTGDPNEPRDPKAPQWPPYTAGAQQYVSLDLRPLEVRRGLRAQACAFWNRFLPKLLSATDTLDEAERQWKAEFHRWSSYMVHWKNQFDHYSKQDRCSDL
quantity measured: IC50

input: Please report IC50 for the following compound: C#CCNCc1cc2cc(OCc3ccccc3)ccc2[nH]1
output: > 100 µM
